Tested on: RPMI-8226 leukemia
Test: NCI tumour cell line growth inhibition, 48 h
# TGI values compiled below

molecule	target.or.system	TGI
N=c1ccn2c(n1)OC1C(O)C(CO)OC12 (stereo unspecified)	RPMI-8226 leukemia	> 1000 µM
CC(=O)OC1(C#N)CC2OC1C1C2N=NN1C(=O)OC(C)(C)C (stereo unspecified)	RPMI-8226 leukemia	> 100 µM
CC[C@@]12N=C(N(C)C)C[C@]1(O)ON=C2C	RPMI-8226 leukemia	> 100 µM
CCN1CCN=c2c3cc(OC)ccc3n3cnc4ccc1c2c43	RPMI-8226 leukemia	0.558 µM
CCOC(=O)C(=Cc1cccc(Cl)c1)C(=O)OCC	RPMI-8226 leukemia	5.32 µM
Cc1cc(C)nc(NS(=O)(=O)c2ccc(NNC(=O)c3cccc4c(=O)c5ccccc5[nH]c34)cc2)n1	RPMI-8226 leukemia	> 100 µM
